- Tested on: HOP-62 NSCLC
- Experiment: NCI tumour cell line growth inhibition, 48 h
Recorded TGI values for a group of molecules are listed next.

Worked examples, 3 molecules total:
Molecule: CCCCC(=O)Oc1ccc2c(C)cc(=O)oc2c1
Property Measured: TGI
Readout Value: > 100 µM
--
Molecule: CCN1C(=O)N(c2ccccc2)C2NN=c3s/c(=C4\C(=O)N(C(C)C)c5ccccc54)c(=O)n3C21 (centres undefined)
Property Measured: TGI
Readout Value: 18.9 µM
--
Molecule: O=C(CCN1CCOCC1)Nc1ccc2sc3ccccc3c(=O)c2n1
Property Measured: TGI
Readout Value: > 100 µM

Query molecule follows.
Param item = CC(C)(C)C(=O)O[C@@H]1COC2C(O)COC21 (some centres undefined) ; retrieve measured TGI.
> 100 µM
